- study_target: Protein A (recombinant) (UniProt P02976 P02976:37-485)
- Sequence (P02976 37-485, one chain of several): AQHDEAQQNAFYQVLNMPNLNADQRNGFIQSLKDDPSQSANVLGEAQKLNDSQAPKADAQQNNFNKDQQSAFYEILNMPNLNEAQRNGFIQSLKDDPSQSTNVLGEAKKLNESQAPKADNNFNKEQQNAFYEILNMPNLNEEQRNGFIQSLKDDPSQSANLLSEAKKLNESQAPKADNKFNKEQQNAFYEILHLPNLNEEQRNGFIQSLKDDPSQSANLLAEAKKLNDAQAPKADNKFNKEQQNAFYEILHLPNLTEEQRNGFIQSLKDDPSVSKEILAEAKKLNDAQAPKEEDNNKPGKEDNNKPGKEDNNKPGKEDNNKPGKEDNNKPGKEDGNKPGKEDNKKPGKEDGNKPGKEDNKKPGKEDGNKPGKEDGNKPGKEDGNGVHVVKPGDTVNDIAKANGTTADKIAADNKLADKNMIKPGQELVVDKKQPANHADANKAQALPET
- experimental_details: SPR; steady-state avidity (bivalent analyte); 100 mM NaCl, 20 mM Tris-HCl pH 7.6, 10 mM MgCl2, 5 mM KCl, 1 mM CaCl2, 0.005% SP20
- test_parameters: tags: Sigma-Aldrich P7837; label: 3'-biotin
observation_type: pKd
Just the number, please; pKd means minus log10 of the concentration in mol/L.

Problem: Returns the measured pKd for the input binder. Input: PA#2/8 (3'-biotin) (ssDNA) DNA: ATACCAGCTTATTCAATTAGCAACATGAGGGGGATAGAGGGGGTGGGTTCTCTCGGCTACAATCGTAATCAGTTAG
Solution: 6.73
